Target: human serotonin transporters (Homo sapiens, UniProt P31645)
Construct: expressed in transfected cells; host or cells: HEK-293 (HEK-hSERT), membrane homogenates
Sequence (P31645 whole entry): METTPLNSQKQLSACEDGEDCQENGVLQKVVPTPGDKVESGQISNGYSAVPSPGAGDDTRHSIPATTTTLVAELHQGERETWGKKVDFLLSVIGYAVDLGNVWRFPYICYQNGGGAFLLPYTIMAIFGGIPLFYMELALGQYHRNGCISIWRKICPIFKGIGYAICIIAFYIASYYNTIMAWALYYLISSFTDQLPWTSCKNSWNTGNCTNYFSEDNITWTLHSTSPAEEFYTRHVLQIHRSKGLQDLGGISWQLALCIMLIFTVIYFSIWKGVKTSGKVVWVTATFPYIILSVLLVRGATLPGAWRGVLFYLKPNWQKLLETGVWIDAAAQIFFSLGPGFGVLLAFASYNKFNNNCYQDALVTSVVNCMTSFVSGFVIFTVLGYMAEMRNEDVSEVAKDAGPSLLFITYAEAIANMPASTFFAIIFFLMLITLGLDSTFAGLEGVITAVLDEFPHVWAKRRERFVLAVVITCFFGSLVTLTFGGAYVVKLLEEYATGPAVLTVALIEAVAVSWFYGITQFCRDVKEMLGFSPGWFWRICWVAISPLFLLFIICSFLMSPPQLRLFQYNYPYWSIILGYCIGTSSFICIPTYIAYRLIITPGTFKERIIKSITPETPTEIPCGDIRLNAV
Experiment: Serotonin Transporter Binding Assay
Settings: SERT Ki (nM), HEK-hSERT cell membranes, 1 nM [3H]-citalopram, Cheng and Prusoff
Task for the reader: assign each of the following compounds its reported Ki.

* CC([C@@H]1C[C@H]1c1c[nH]c2ccc(C#N)cc12)N(C)C (single isomer, unassigned) [Example 122B] | 1 to 10 nM
* CCN(CC)C[C@H]1C[C@@H]1c1c[nH]c2cc(C#N)ccc12 (racemic) | 10 to 100 nM
* CC(C1CC1c1c[nH]c2ccc(C#N)cc12)N1CCCC1 (centres unmarked) | 1 to 10 nM

Answer for every listed entry: what is its Ki? The entries follow.
1. N#Cc1ccc2[nH]cc(C3CC3CN3CCOCC3)c2c1 (centres unmarked)
2. CN(C)CC1CC1c1c[nH]c2ccccc12 (centres unmarked)
3. CN(C)CC1CC1c1c[nH]c2ccc(F)cc12 (single isomer, unassigned) [Example 130a]
4. CN(C)CC1CC1c1c[nH]c2ccc(C#N)cc12 (single isomer, unassigned) [Example 129a]
5. CC([C@@H]1C[C@H]1c1c[nH]c2ccc(C#N)cc12)N(C)C (single isomer, unassigned) [Example 122A]

Return:
1: 10 to 100 nM; 2: 10 to 100 nM; 3: 100 to 1000 nM; 4: 10 to 100 nM; 5: < 1 nM
